Below, each entry is listed alongside its reported GI50.
Test system: SF-268
assayNotes: Cytostatic activity against human SF268 cells
Assay type: functional
experimentalEndpoint: GI50 (µM)

1) N=C(NO)NS(=O)(=O)c1cc(-c2nnc(-c3ccc(Cl)cc3)s2)c(Cl)cc1SCc1ccccc1 ... 1.9
2) N=C(NO)NS(=O)(=O)c1cc(-c2nnc(-c3ccc(Cl)cc3)s2)c(Cl)cc1SCc1ccc2c(c1)OCO2 ... 2.04
3) N=C(NO)NS(=O)(=O)c1cc(-c2nc(-c3ccccc3)no2)c(Cl)cc1SCc1ccccc1 ... 1.74
4) COc1cc(CSc2cc(Cl)c(-c3nnc(-c4ccccc4)s3)cc2S(=O)(=O)NC(=N)NO)cc(OC)c1OC ... 2.4

* * *

Tested on: OVCAR-3
assayNotes: Cytostatic activity against human OVCAR3 cells
Format: functional
Below, each entry is listed alongside its reported GI50.
experimentalEndpoint: GI50 (nM)

1) N=C(NO)NS(=O)(=O)c1cc(-c2nnc(-c3ccccc3)s2)c(Cl)cc1SCc1ccc2c(c1)OCO2 ... 1700
2) N=C(NO)NS(=O)(=O)c1cc(-c2nc(-c3ccccc3)no2)c(Cl)cc1SCc1ccc2c(c1)OCO2 ... 1700
3) N=C(NO)NS(=O)(=O)c1cc(-c2nc(-c3ccccc3)no2)c(Cl)cc1SCc1ccccc1 ... 1690
4) COc1cc(CSc2cc(Cl)c(-c3nc(-c4ccc(Cl)cc4)no3)cc2S(=O)(=O)NC(=N)NO)cc(OC)c1OC ... 1910
5) COc1cc(CSc2cc(Cl)c(-c3nnc(-c4ccccc4)s3)cc2S(=O)(=O)NC(=N)NO)cc(OC)c1OC ... 2190
6) N=C(NO)NS(=O)(=O)c1cc(-c2nnc(-c3ccc(Cl)cc3)s2)c(Cl)cc1SCc1ccccc1 ... 1670
7) COc1cc(CSc2cc(Cl)c(-c3nc(-c4ccccc4)no3)cc2S(=O)(=O)NC(=N)NO)cc(OC)c1OC ... 4790
8) COc1cc(CSc2cc(Cl)c(-c3nnc(-c4ccc(Cl)cc4)s3)cc2S(=O)(=O)NC(=N)NO)cc(OC)c1OC ... 10200
9) N=C(NO)NS(=O)(=O)c1cc(-c2nnc(-c3ccc(Cl)cc3)s2)c(Cl)cc1SCc1ccc2c(c1)OCO2 ... 1620
10) N=C(NO)NS(=O)(=O)c1cc(-c2nc(-c3ccc(Cl)cc3)no2)c(Cl)cc1SCc1ccc2c(c1)OCO2 ... 1700

* * *

System: SF-268
assayNotes: Cytostatic activity against human SF268 cells
Assay type: functional
experimentalEndpoint: GI50 (µM)

1. N=C(NO)NS(=O)(=O)c1cc(-c2nc(-c3ccccc3)cs2)c(Cl)cc1SCc1ccc2c(c1)OCO2 ... 1.86
2. N=C(NO)NS(=O)(=O)c1cc(-c2nnc(-c3ccccc3)s2)c(Cl)cc1SCc1ccc2c(c1)OCO2 ... 1.61
3. COc1cc(CSc2cc(Cl)c(-c3nc(-c4ccc(Cl)cc4)no3)cc2S(=O)(=O)NC(=N)NO)cc(OC)c1OC ... 2.95
4. COc1cc(CSc2cc(Cl)c(-c3nnc(-c4ccc(Cl)cc4)s3)cc2S(=O)(=O)NC(=N)NO)cc(OC)c1OC ... 9.55
5. N=C(NO)NS(=O)(=O)c1cc(-c2nc(-c3ccccc3)no2)c(Cl)cc1SCc1ccc2c(c1)OCO2 ... 1.91
6. N=C(NO)NS(=O)(=O)c1cc(-c2nc(-c3ccc(Cl)cc3)no2)c(Cl)cc1SCc1ccc2c(c1)OCO2 ... 1.82
7. COc1cc(CSc2cc(Cl)c(-c3nc(-c4ccccc4)no3)cc2S(=O)(=O)NC(=N)NO)cc(OC)c1OC ... 6.92
8. N=C(NO)NS(=O)(=O)c1cc(-c2nc(-c3ccc(Cl)cc3)cs2)c(Cl)cc1SCc1ccc2c(c1)OCO2 ... 6.46
